- Study system: UniProt P41145
- Experiment description: κ-opioid receptor radioligand dose-displacement binding assay ([3H]-U69,593)
Recorded endpoint: Ki (nM)

- COc1ccc2c(c1)[C@]1(CCO)CCN(CC3CC3)[C@H](C2)[C@@H]1CO: 89.6

---

- Study system: μ-opioid receptor (Homo sapiens (Human), UniProt P35372)
- Experiment description: μ-opioid receptor [35S]GTPγS functional assay
- Assay type: biochemical
- Stated conditions: maximal effect relative to DAMGO
The following molecules are shown together with reported Emax values.
Recorded endpoint: Emax (%)

* COc1ccc2c(c1)[C@]1(CC(N)=O)CCN(CC3CC3)[C@H](C2)[C@@H]1CO | 56
* CN(C)C(=O)CCC[C@]12CCN(CC3CC3)[C@H](Cc3ccc(O)cc31)/C2=C\C(=O)O | 48.7
* O=C(O)/C=C1\[C@H]2Cc3ccc(O)cc3[C@]1(CCCC(=O)O)CCN2CC1CC1 | 44.3
* O=C(O)CCC[C@]12CCN(CC3CC3)[C@H](Cc3ccc(O)cc31)[C@@H]2CC(=O)O | 16

Cited source for all entries: patent US9056836B2
